Can you tell me Ki for the items I'm about to list?
target: high affinity nicotinic receptors; experiment: Inhibition of L-[3H]nicotine binding to mouse brain membrane preparations; settings: mouse brain membranes, 2 hr at 4° C., Ki calculated from IC50 by Cheng method

Bench note, high affinity nicotinic receptors: entry CN1CCCC1c1cncc(F)c1 (racemic) , its Ki = 61 nM

Bench note, high affinity nicotinic receptors: entry Cc1cncc(C2CCCN2C)c1 (racemic) , its Ki = 2 nM

Bench note, high affinity nicotinic receptors: entry CN1CCCC1c1cncc(Br)c1 (racemic) , its Ki = 44 nM

Bench note, high affinity nicotinic receptors: entry CC1CCC(c2cccnc2)N1C (racemic) , its Ki = 6400 nM

Bench note, high affinity nicotinic receptors: entry CC1CC(c2cccnc2)N(C)C1 (racemic) , its Ki = 91 nM
